tested on: U2OS; assay: Multiplex assay against U2OS; format: toxicity, cell-based; settings: human, 24 h, 10 µM, compound concentration 10 uM, replicate 1
readout: Population Tubulin-Different-Phenotype (%)
Expressed in %, but write only the number.

Look over these answered cases.
CCCn1c(=O)c2[nH]c(C34CC5CC(CC3C5)C4)nc2n(CCC)c1=O; 98
Cc1cn(-c2cc(NC(=O)c3ccc4c(c3)CN(c3cncnc3)C[C@@H]4C)cc(C(F)(F)F)c2)cn1; 12

QUERY: Consider the compound "COc1cc2c(NC3CCN(C(C)C)CC3)nc(N3CCC(F)(F)CC3)nc2cc1OCCCN1CCCC1" . State its measured Population Tubulin-Different-Phenotype (%).
RESULT: 98

QUERY: Answer with the recorded Population Tubulin-Different-Phenotype (%) for the compound listed here: "CN(C)CCOc1ccc(-c2nc(-c3ccncc3)c(-c3ccc4c(c3)CC/C4=N\O)[nH]2)cc1"
RESULT: 30

###

system: U2OS; experiment: Multiplex assay against U2OS; format: toxicity, cell-based; conditions: human, 12 h, 1 µM, compound concentration 1 uM, replicate 2
The label YES is reserved for Population Apoptotic (%) strictly under 20%; NO covers values equal to or above it.

QUERY: Regarding CN(C)C/C=C/C(=O)Nc1cc2c(Nc3ccc(F)c(Cl)c3)ncnc2cc1O[C@H]1CCOC1.O=C(O)/C=C\C(=O)O.O=C(O)/C=C\C(=O)O [AFATINIB DIMALEATE] , kindly confirm whether its Population Apoptotic (%) is beneath 20%.
RESULT: NO

###

system: Fibroblast; test: Incucyte cell viability with human fibroblast; type: toxicity, cell-based; details: 24 h, 10 µM, compound concentration 10 uM, replicate number 1, timepoint 24 hours; further: filed as whole numbers so only -1 and 0 and 1 occur
readout: Growth Rate

Cl.Cl.NC1(c2ccc(-c3nc4ccn5c(=O)[nH]nc5c4cc3-c3ccccc3)cc2)CCC1; 0

QUERY: In one line, give reported Growth Rate of the entry "C1=N/C2=N/c3ccc(OCCN4CCCC4)c(c3)COC/C=C\COCc3cccc(c3)C(=C1)N2" .
RESULT: 0

QUERY: For "CCNC(=O)c1cc2c(N3CCOC[C@@H]3C)ccnc2[nH]1" , write its Growth Rate.
RESULT: 1

QUERY: Return value of Growth Rate for input CCOc1cc2ncc(C#N)c(Nc3ccc(OCc4cccc(F)c4)c(Cl)c3)c2cc1NC(=O)/C=C/CN(C)C [HKI-357] , no commentary.
RESULT: 0

QUERY: Retrieve Growth Rate measured for "N#Cc1c(N)nc(SCC(N)=O)c(C#N)c1-c1ccc(OCC2CC2)cc1" and print it.
RESULT: 1

QUERY: Provide measured Growth Rate value, entry: "CCc1cc2c(c(CC)n1)CCC(=O)N2Cc1ccc(-c2ccccc2-c2nnn[nH]2)cc1.Cl"
RESULT: 1

QUERY: // fetch Growth Rate given entry C[C@@H]1CCc2ncc(F)cc2[C@H]2CCCN2c2ccn3ncc(c3n2)C(=O)N1 [SELITRECTINIB]
RESULT: 1

QUERY: Please list Growth Rate recorded for the compound "Cc1nc(C#Cc2ccnc(Cl)c2)c(C)n1-c1ccc(OC(F)(F)F)cc1"
RESULT: 1

QUERY: Note down Growth Rate recorded for "Nc1ccc(C(=O)Nc2cccc(-c3nc(N4CCOCC4)c4oc5ncccc5c4n3)c2)cn1"
RESULT: 0

###

tested on: U2OS; assay: Multiplex assay against U2OS; type: toxicity, cell-based; settings: human, 12 h, 1 µM, compound concentration 1 uM, replicate 2
Total Cell Count reference
Lab note: record the figure alone, no unit after it.

Solved cases (5 shown):
CS(=O)(=O)N1CCN(Cc2cc3nc(-c4cccc5[nH]ncc45)nc(N4CCOCC4)c3s2)CC1; 91
CCn1c(-c2nonc2N)nc2cnc(Oc3cccc(NC(=O)c4ccc(OCCN5CCOCC5)cc4)c3)cc21 [GSK-269962A]; 45
CCOc1cc2ncc(C#N)c(Nc3ccc(OCc4cccc(F)c4)c(Cl)c3)c2cc1NC(=O)/C=C/CN(C)C; 141
Cc1nc(Cc2cccc(C(F)(F)F)c2)sc1-c1ccc(C(N)=O)nc1 [TP-024n]; 130
CNC(=O)c1cc(Oc2ccc(NC(=O)Nc3cc(C(C)(C)C)nn3-c3ccc4ncccc4c3)c(F)c2)ccn1; 113

QUERY: Fill: Total Cell Count (U2OS) for this molecule "Cl.Cl.NC1(c2ccc(-c3nc4ccn5c(=O)[nH]nc5c4cc3-c3ccccc3)cc2)CCC1"
RESULT: 116

QUERY: Answer with Total Cell Count of "Nc1ccc(C(=O)Nc2cccc(-c3nc(N4CCOCC4)c4oc5ncccc5c4n3)c2)cn1" measured for U2OS.
RESULT: 55

QUERY: Lab note: U2OS assay, enter Total Cell Count for "Nc1nc2c(c(N3CCNCC3)n1)CCC1=C2[C@@H]2CCCC[C@@H]2O1" here
RESULT: 71

###

test system: U2OS; test: Multiplex assay against U2OS; type: toxicity, cell-based; details: human, 12 h, 1 µM, compound concentration 1 uM, replicate 1
readout: Population Fragmented Nuclei (%)
Express your answer in %, writing the number without its unit.

Recorded results for 6 compounds are shown here.
COc1cc2c(Nc3ccc(NC(=O)c4ccccc4)cc3)ncnc2cc1OCCCN1CCOCC1; 8
CN(C)CCOc1ccc(-c2nc(-c3ccncc3)c(-c3ccc4c(c3)CC/C4=N\O)[nH]2)cc1 [SB590885]; 22
CCOc1cc2ncc(C#N)c(Nc3ccc(OCc4cccc(F)c4)c(Cl)c3)c2cc1NC(=O)/C=C/CN(C)C [HKI-357]; 5
Cl.Cl.Nc1ncnc2c1c(-c1cccc(OCc3ccccc3)c1)cn2[C@H]1C[C@@H](CN2CCC2)C1; 13
CC(=O)c1cc(-c2cc(C(=O)NC3CC3)ccc2C)c2ncccn12; 6
CC(C)(C)c1cnc(CSc2cnc(NC(=O)C3CCNCC3)s2)o1 [BMS-387032]; 13

QUERY: Please report Population Fragmented Nuclei (%) with U2OS for item O=C(O)c1ccc2cc(-c3ccc(O)c(C45CC6CC(CC(C6)C4)C5)c3)ccc2c1 [O-DEMETHYLATED ADAPALENE] .
RESULT: 21

QUERY: Return reported Population Fragmented Nuclei (%) for target or system U2OS, item CCCn1c(=O)c2[nH]c(C34CC5CC(CC3C5)C4)nc2n(CCC)c1=O [ROLOFYLLINE] .
RESULT: 14

###

tested on: Fibroblast; assay: Multiplex assay against human fibroblast; assay type: toxicity, cell-based; conditions: 48 h, 1 µM, compound concentration 1 uM, replicate 1
Label t when Population Normal (%) is strictly below 60%; at or above that, label f.

Observe how each entry below is paired with its result.
CC(C)N1CCC(C)(C)c2cc(C#Cc3ccc(C(=O)O)cc3)ccc21; t
CCC(=O)O[C@]1(C(=O)SCF)[C@H](C)C[C@H]2[C@@H]3C[C@H](F)C4=CC(=O)C=C[C@]4(C)[C@@]3(F)[C@@H](O)C[C@@]21C [FLUTICASONE PROPIONATE]; f

We now examine a further compound.
QUERY: Consider CCn1c(-c2nonc2N)nc2cnc(Oc3cccc(NC(=O)c4ccc(OCCN5CCOCC5)cc4)c3)cc21 [GSK-269962A] . Does its Population Normal (%) lie strictly below 60%?
RESULT: f

###

system: U2OS; assay: Multiplex assay against U2OS; format: toxicity, cell-based; details: human, 12 h, 1 µM, compound concentration 1 uM, replicate 1
Criterion: Population Membrane Permeable-Phenotype (%) meeting or surpassing 20%. Met: criterion met. Not met: criterion not met.

Field: example entries. Status: answers known.
COc1cc2c(Nc3ccc(NC(=O)c4ccccc4)cc3)ncnc2cc1OCCCN1CCOCC1; criterion met
Nc1nc2c(c(N3CCNCC3)n1)CCC1=C2[C@@H]2CCCC[C@@H]2O1; criterion not met
CC(C)Oc1ccc(C(=O)N[C@H](CNC(=O)CN(C)C)Cc2ccc(-c3cn4cccc([C@H](C)O)c4n3)cc2)cc1Cl [GSK-923295A]; criterion met
CCOc1cc2ncc(C#N)c(Nc3ccc(OCc4cccc(F)c4)c(Cl)c3)c2cc1NC(=O)/C=C/CN(C)C; criterion met

QUERY: Dear colleague, could you confirm whether CCn1c(-c2nonc2N)nc2cnc(Oc3cccc(NC(=O)c4ccc(OCCN5CCOCC5)cc4)c3)cc21 [GSK-269962A] has Population Membrane Permeable-Phenotype (%) at or above 20%?
RESULT: criterion not met

###

tested on: Fibroblast; test: Multiplex assay against human fibroblast; format: toxicity, cell-based; details: 24 h, 10 µM, compound concentration 10 uM, replicate 1
So basically, if Population Healthy Nuclei (%) comes in under 50% it's Y, and if it's 50% or more it's N.

// known answers, use as guide
CCOc1cc2ncc(C#N)c(Nc3ccc(OCc4cccc(F)c4)c(Cl)c3)c2cc1NC(=O)/C=C/CN(C)C [HKI-357]; Y
O=C(O)c1ccc2cc(-c3ccc(O)c(C45CC6CC(CC(C6)C4)C5)c3)ccc2c1 [O-DEMETHYLATED ADAPALENE]; Y
N#Cc1cnc(Nc2cc(NC[C@H]3CNCCO3)c(C(F)(F)F)cn2)cn1 [SRA-737]; Y
c1ccc2oc(-c3csc(C4CCN(Cc5nc6ncccc6[nH]5)CC4)n3)cc2c1; N

QUERY: Say whether its Population Healthy Nuclei (%) is strictly beneath 50%. Entry: "CCN1CCN(Cc2ccc(NC(=O)c3ccc(C)c(Oc4ccnc5[nH]ccc45)c3)cc2C(F)(F)F)CC1.Cl.Cl.Cl.O"
RESULT: Y
